assay details: physchem
condition context: PBS buffer, pH 7.4
Square brackets hold non-standard residues; d marks the D form. Peptide text beside a SMILES is read from it. NMeT = CN[C@H](C(=O)O)[C@@H](C)O; NMeA = CN[C@@H](C)C(=O)O
reported endpoint: solubility (µM)

# compound, unit, number
records = [
    ("CC(C)C[C@@H]1NC(=O)[C@H]([C@@H](C)O)N(C)C(=O)[C@H]2CCCN2C(=O)[C@H](CC(C)C)NC(=O)[C@H](C)N(C)C(=O)[C@H](CC(C)C)NC(=O)[C@H]([C@@H](C)O)N(C)C(=O)[C@H]2CCCN2C(=O)[C@H](CC(C)C)NC(=O)[C@H](C)N(C)C1=O (cyclo(L[NMeA]L[dP][NMeT]L[NMeA]L[dP][NMeT]))", "µM", 880),
]
